Each entry below lists one item and its recorded Papp A→B at 10 ug/ml value.
# method_description: Apparent permeability across apical to basolateral membrane in human Caco2 cells at 10 ug/ml by LC-MS/MS analysis
# Type: ADME, cell-based
# particulars: Caco-2
Please format your answer as a value with the unit trailing.

O=C(O)c1ccccc1NCc1ccc(Sc2ccc(Cl)c(Cl)c2)c([N+](=O)[O-])c1 :: 36.2 ×10⁻⁶ cm/s

Now consider a different compound.
Q: Supply measured Papp A→B at 10 ug/ml of O=C(O)c1ccccc1C(=O)c1ccc(Sc2ccc(Cl)c(Cl)c2)c([N+](=O)[O-])c1 in your reply.
Ans: 35 ×10⁻⁶ cm/s

Where these numbers come from: ChEMBL document CHEMBL4616723
